# System Tested: human PHD2 (Homo sapiens (Human))
Measured Endpoint: IC50 (µM)

Illustrative cases are given below, each with its answer.
Molecule | IC50 [µM]
Cc1ccccc1Oc1ccc(CN2CCC(O)=C(C(=O)NCC(=O)O)C2=O)cn1 [Ex. 1-275] | 0.099
Cc1ccc(Oc2ncc(CN3CCC(O)=C(C(=O)NCC(=O)O)C3=O)cc2F)cc1 [Ex. 1-393] | 0.032

(A) Cc1ccccc1Oc1ccc(CN2CCC(O)=C(C(=O)NCC(=O)O)C2=O)cc1 [Ex. 1-283]
(B) CCc1ccc(Oc2ccc(CN3CCC(O)=C(C(=O)NCC(=O)O)C3=O)cn2)cc1 [Ex. 1-376]
Could you point out whether the larger IC50 belongs to A or to B ? Reply briefly: the label of your chosen item. A
(A: 0.063 µM, B: 0.022 µM)

---

# System Tested: UniProt:Q9GZT9
# Protocol Details: Test 2: human PHD2 inhibitory activity, fluorescence polarization assay of HIF-1α peptide proline hydroxylation
# Format: biochemical
# Test Context: test compound's concentration 1 μM; Test 2, fluorescence polarization assay; read-out: Percent inhibition (% at 1 μM)
Measured Endpoint: inhibition at 1 µM (%)

Worked cases, inhibition at 1 µM given:
Mol Smiles | System Tested | Unit Abbreviation | inhibition at 1 µM
O=C(O)CNC(=O)C1=C(O)CCN(Cc2cccc(OC(F)(F)F)c2)C1=O | UniProt:Q9GZT9 | % | 66
O=C(O)CNC(=O)C1=C(O)CCN(Cc2cc(-c3ccccc3)no2)C1=O | UniProt:Q9GZT9 | % | 88

(A) CC1(C)CC(O)=C(C(=O)NCC(=O)O)C(=O)N1C[C@H]1C[C@@H](c2ccccc2)C1
(B) Cc1ccc(Oc2ccc(CN3CCC(O)=C(C(=O)NCC(=O)O)C3=O)cn2)cc1F
Kindly compare A with B and tell me which has the lower inhibition at 1 µM figure. Pick one; state its label. A
(A: 62%, B: 105%)

---

# System Tested: human PHD2 (Homo sapiens (Human), UniProt Q9GZT9)
# Sequence (Q9GZT9 whole entry): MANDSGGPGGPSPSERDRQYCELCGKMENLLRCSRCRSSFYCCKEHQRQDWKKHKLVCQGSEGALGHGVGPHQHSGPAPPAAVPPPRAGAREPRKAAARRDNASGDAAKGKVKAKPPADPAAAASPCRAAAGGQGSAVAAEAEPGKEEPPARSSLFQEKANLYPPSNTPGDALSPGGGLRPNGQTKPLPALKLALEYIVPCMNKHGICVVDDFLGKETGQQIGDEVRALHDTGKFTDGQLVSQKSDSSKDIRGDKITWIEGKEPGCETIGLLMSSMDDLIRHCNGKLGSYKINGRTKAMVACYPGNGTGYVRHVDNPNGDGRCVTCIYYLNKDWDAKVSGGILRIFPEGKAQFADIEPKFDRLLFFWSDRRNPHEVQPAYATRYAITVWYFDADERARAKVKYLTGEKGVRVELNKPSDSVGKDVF
# Protocol Details: Test 1: human PHD2 inhibitory activity, [14C]-2-oxoglutarate to [14C]-succinic acid radiometric assay with HIF-1α peptide
# Assay type: biochemical
# Test Context: test compound's concentration 1 μM; Test 1, [14C]-2-oxoglutarate radiometric assay; read-out: Percent inhibition (% at 1 μM)
Measured Endpoint: inhibition at 1 µM (%)

Worked cases, answers included:
Molecule | Unit Abbreviation | inhibition at 1 µM
O=C(O)CNC(=O)C1=C(O)CCN(Cc2ccc3sccc3c2)C1=O | % | 88
CC1(C)CC(O)=C(C(=O)NCC(=O)O)C(=O)N1Cc1ccc(OCCCC(F)(F)F)cc1 | % | 64

(A) Cc1ccc(CN2C(=O)C(C(=O)NCC(=O)O)=C(O)CC2(C)C)cc1Cl
(B) COc1cccc(-c2ccc(CN3CCC(O)=C(C(=O)NCC(=O)O)C3=O)cc2)c1
Which one would you say has the larger inhibition at 1 µM value: A , or B ? Provide the label of your selected option as the answer. B

(a) O=C(O)CNC(=O)C1=C(O)CCN(Cc2ccc3c(c2)CCCC3)C1=O
(b) O=C(O)CNC(=O)C1=C(O)CC(Cc2ccccc2)N(Cc2ccc(-c3ccccc3)cc2)C1=O (centres unmarked)
I'm curious, which of these has a smaller inhibition at 1 µM number: a or b ? Mark your selection by writing its label. b

(I) O=C(O)CNC(=O)C1=C(O)CCN(Cc2ccc(-c3ccccn3)cc2)C1=O
(II) O=C(O)CNC(=O)C1=C(O)CC2(CCCCC2)N(Cc2ccc(C(F)(F)F)cc2)C1=O
Field: lower recorded inhibition at 1 µM (choose I or II ) Use the label to indicate which entry you chose. II

(a) O=C(O)CNC(=O)C1=C(O)CC2(CCCCC2)N(Cc2ccc(C(F)(F)F)nc2)C1=O
(b) O=C(O)CNC(=O)C1=C(O)CCN(Cc2ccc(Oc3ccccc3F)cc2)C1=O
Higher inhibition at 1 µM: a or b ? # respond with the chosen item's label b
(b: 101%, a: 64%)

---

# System Tested: UniProt:Q9GZT9
# Protocol Details: Test 2: human PHD2 inhibitory activity, fluorescence polarization assay of HIF-1α peptide proline hydroxylation
# Type: biochemical
# Test Context: test compound's concentration 1 μM; Test 2, fluorescence polarization assay; read-out: Percent inhibition (% at 1 μM)
Measured Endpoint: inhibition at 1 µM (%)

Compound | Unit Abbreviation | inhibition at 1 µM
O=C(O)CNC(=O)C1=C(O)C2(CCCC2)CN(Cc2ccc(-c3ccccc3)cc2)C1=O | % | 81
O=C(O)CNC(=O)C1=C(O)C(c2ccccc2)CN(Cc2ccc(-c3ccccc3)cc2)C1=O (centres unmarked) | % | 83
CC1(C)CC(O)=C(C(=O)NCC(=O)O)C(=O)N1Cc1coc(-c2ccccc2)n1 | % | 74
O=C(O)CNC(=O)C1=C(O)C2(CCCCC2)CN(Cc2ccc(C(F)(F)F)cc2)C1=O | % | 77
O=C(O)CNC(=O)C1=C(O)CCN(Cc2ccc(-c3ccncc3)cc2)C1=O | % | 93
Cc1ccc(O[C@H]2CC[C@H](CN3CCC(O)=C(C(=O)NCC(=O)O)C3=O)CC2)nc1 | % | 87
O=C(O)CNC(=O)C1=C(O)CC2(CCCC2)N(Cc2ccc(C(F)(F)F)cc2)C1=O | % | 80
O=C(O)CNC(=O)C1=C(O)CC(Cc2ccccc2)N(Cc2ccc(-c3ccccc3)cc2)C1=O (centres unmarked) | % | 84

---

# System Tested: human PHD2 (Homo sapiens (Human), UniProt Q9GZT9)
pIC50: −log10 of the molar value.
Measured Endpoint: pIC50

Examples with their reported pIC50 follow.
Mol Smiles | pIC50
COc1cccc(Oc2ccc(CN3CCC(O)=C(C(=O)NCC(=O)O)C3=O)cn2)c1 | 7.21
O=C(O)CNC(=O)C1=C(O)CCN(Cc2ccc(Oc3ccc(F)cc3)nc2)C1=O | 7.06

(1) Cc1ccc(Oc2ncc(CN3CCC(O)=C(C(=O)NCC(=O)O)C3=O)cn2)cc1
(2) CC(C)c1ccc(Oc2ccc(CN3CCC(O)=C(C(=O)NCC(=O)O)C3=O)cn2)cc1
(3) Cc1cc(Oc2ccc(CN3CCC(O)=C(C(=O)NCC(=O)O)C3=O)cn2)ccc1F
List these items ordered by pIC50, big to small. Give the labels in the order requested. 2, 3, 1
(2: 7.85, 3: 7.39, 1: 7.14)

---

# System Tested: human PHD2 (Homo sapiens (Human))
# Protocol Details: Test 2: human PHD2 inhibitory activity, fluorescence polarization assay of HIF-1α peptide proline hydroxylation
# Format: biochemical
# Test Context: test compound's concentration 1 μM; Test 2, fluorescence polarization assay; read-out: Percent inhibition (% at 1 μM)
# Description: (1) Expression and Preparation of Human PHD2 A registered sequence of human PHD2 (NM_022051) was introduced into pcDNA3.1/Hygro(+) vector (Invitrogen), and the sequence was verified. […] The activity of human PHD2 enzyme was measured with a substrate which is a 19-residue partial peptide based on the sequence of HIF-1α; specifically, the hydroxylation of a proline residue in the peptide was measured by FP (Fluorescence Polarization). […]
Measured Endpoint: inhibition at 1 µM (%)

Mol Smiles | Value Reported
CC1(C)CC(O)=C(C(=O)NCC(=O)O)C(=O)N1Cc1ccc(C2CCC2)cc1 | 79

(I) O=C(O)CNC(=O)C1=C(O)CCN(Cc2cc(C(F)(F)F)cc(C(F)(F)F)c2)C1=O
(II) O=C(O)CNC(=O)C1=C(O)CCN(Cc2ccc(Cl)c(C(F)(F)F)c2)C1=O
API: POST /compare with I and II ; response names the item with higher inhibition at 1 µM. Indicate which entry you chose by stating its label. II
(II: 86%, I: 54%)

---

# System Tested: human PHD2 (Homo sapiens (Human))
# Protocol Details: Test 1: human PHD2 inhibitory activity, [14C]-2-oxoglutarate to [14C]-succinic acid radiometric assay with HIF-1α peptide
# Format: biochemical
# Test Context: test compound's concentration 1 μM; Test 1, [14C]-2-oxoglutarate radiometric assay; read-out: Percent inhibition (% at 1 μM)
Measured Endpoint: inhibition at 1 µM (%)

Mol Smiles | Unit Abbreviation | inhibition at 1 µM
O=C(O)CNC(=O)C1=C(O)CCN(Cc2ccc(C3CC3)c(C(F)(F)F)c2)C1=O | % | 82
O=C(O)CNC(=O)C1=C(O)CCN(Cc2ccc(C(F)(F)F)c(F)c2F)C1=O | % | 86
O=C(O)CNC(=O)C1=C(O)CC2(CCC2)N(Cc2ccc(C(F)(F)F)cc2)C1=O | % | 65
O=C(O)CNC(=O)C1=C(O)CCN(CCc2cccc(C(F)(F)F)c2)C1=O | % | 64

---

# System Tested: UniProtKB Q9GZT9
# Protocol Details: Test 1: human PHD2 inhibitory activity, [14C]-2-oxoglutarate to [14C]-succinic acid radiometric assay with HIF-1α peptide
# Assay type: biochemical
# Test Context: test compound's concentration 1 μM; Test 1, [14C]-2-oxoglutarate radiometric assay; read-out: Percent inhibition (% at 1 μM)
Measured Endpoint: inhibition at 1 µM (%)

A selection of reference data follows.
Mol Smiles | Unit Abbreviation | inhibition at 1 µM
O=C(O)CNC(=O)C1=C(O)CCN(Cc2ccc(-c3ccc4ncccc4c3)cc2)C1=O | % | 100
O=C(O)CNC(=O)C1=C(O)CCN(Cc2ccc(OCC3CCC3)cc2)C1=O | % | 92

(A) O=C(O)CNC(=O)C1=C(O)CC2(CC2)N(Cc2ccc(C(F)(F)F)cc2)C1=O
(B) CC1(C)CC(O)=C(C(=O)NCC(=O)O)C(=O)N1Cc1ccc(C(F)(F)F)c(OC(F)F)c1
Please choose the item with the lower inhibition at 1 µM value from this pair: A and B In your reply, give the label of the chosen option. B
